Would you kindly list IC50 for each of these molecules?
molecular target: Recombinant ROCK1 (amino acids 1-477) (Homo sapiens, UniProt Q13464); construct: Recombinant ROCK1 (amino acids 1-477); by word order, ROCK1 from Carna Biosciences; assay: ROCK inhibition assay, LANCE Ultra TR-FRET kinase assay (ROCK1); details: 1 μM ATP, 50 nM ULight-CREBtide substrate
Sequence (Q13464 1-477): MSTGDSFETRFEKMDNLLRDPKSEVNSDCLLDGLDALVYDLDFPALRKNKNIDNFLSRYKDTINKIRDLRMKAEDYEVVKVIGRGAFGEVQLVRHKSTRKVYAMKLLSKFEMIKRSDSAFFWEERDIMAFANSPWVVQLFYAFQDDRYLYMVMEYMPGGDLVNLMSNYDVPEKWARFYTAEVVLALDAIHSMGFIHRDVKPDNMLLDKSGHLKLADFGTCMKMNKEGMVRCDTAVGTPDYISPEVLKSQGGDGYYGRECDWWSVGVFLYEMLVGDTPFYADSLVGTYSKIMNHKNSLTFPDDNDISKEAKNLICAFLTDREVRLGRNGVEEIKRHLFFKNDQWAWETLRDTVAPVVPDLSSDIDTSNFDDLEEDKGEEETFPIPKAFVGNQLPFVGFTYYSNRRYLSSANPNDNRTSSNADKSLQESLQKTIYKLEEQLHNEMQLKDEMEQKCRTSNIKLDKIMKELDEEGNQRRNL

Solved cases below.
Cn1nccc1-c1ccc2c(=O)n(Cc3cccc(C(=O)Nc4nc5c(s4)CCNC5)c3)ccc2c1 [Compound 122]
< 10 nM
CNC(=O)c1cc(F)cc(Cn2ccc3cc(-c4ccnc(N)c4)ncc3c2=O)c1 [Compound 251]
101 to 500 nM
CN(C)CCNC(=O)c1cccc(Cn2cnc3cc(-c4cn[nH]c4C(F)F)ccc3c2=O)c1 [Compound 394]
11 to 100 nM
C[C@H](c1cccc(C(=O)NCC2CCOCC2)c1)n1cnc2cc(-c3cn[nH]c3C(F)F)ccc2c1=O [Compound 462]
11 to 100 nM
Cc1n[nH]cc1-c1ccc2c(=O)n(Cc3cccc(C(=O)Nc4ccc(F)nc4)c3)ccc2c1 [Compound 39]
101 to 500 nM
O=C(NCC1COC1)c1cccc(Cn2ccc3cc(-c4c[nH]nc4C(F)F)ccc3c2=O)c1 [Compound 58]
11 to 100 nM

For each listed entry, give its IC50.
1. CNC(=O)c1cccc(Cn2ccc3cc(-c4cn[nH]c4F)ccc3c2=O)c1 [Compound 297]
2. O=c1c2ccc(-c3c[nH]nc3C(F)F)cc2ccn1Cc1cccc(O)c1 [Compound 14]
3. CN1CC(CNC(=O)c2cccc(Cn3ccc4cc(-c5ccnn5C)ccc4c3=O)c2)C1 [Compound 113]
4. CN1CCc2sc(NC(=O)c3cccc(Cn4ccc5cc(-c6ccnn6C)ccc5c4=O)c3)nc2C1 [Compound 121]

[A]
1. 11 to 100 nM
2. 11 to 100 nM
3. 11 to 100 nM
4. 11 to 100 nM

---

Would you kindly list IC50 for each of these compounds?
target: Recombinant ROCK2 (amino acids 5-554) (Homo sapiens); construct: ROCK2 (amino acids 5-554); by word order, ROCK2 from SignalChem; assay: ROCK inhibition assay, LANCE Ultra TR-FRET kinase assay (ROCK2); details: 4 μM ATP, 50 nM ULight-CREBtide substrate
Sequence (O75116 5-554): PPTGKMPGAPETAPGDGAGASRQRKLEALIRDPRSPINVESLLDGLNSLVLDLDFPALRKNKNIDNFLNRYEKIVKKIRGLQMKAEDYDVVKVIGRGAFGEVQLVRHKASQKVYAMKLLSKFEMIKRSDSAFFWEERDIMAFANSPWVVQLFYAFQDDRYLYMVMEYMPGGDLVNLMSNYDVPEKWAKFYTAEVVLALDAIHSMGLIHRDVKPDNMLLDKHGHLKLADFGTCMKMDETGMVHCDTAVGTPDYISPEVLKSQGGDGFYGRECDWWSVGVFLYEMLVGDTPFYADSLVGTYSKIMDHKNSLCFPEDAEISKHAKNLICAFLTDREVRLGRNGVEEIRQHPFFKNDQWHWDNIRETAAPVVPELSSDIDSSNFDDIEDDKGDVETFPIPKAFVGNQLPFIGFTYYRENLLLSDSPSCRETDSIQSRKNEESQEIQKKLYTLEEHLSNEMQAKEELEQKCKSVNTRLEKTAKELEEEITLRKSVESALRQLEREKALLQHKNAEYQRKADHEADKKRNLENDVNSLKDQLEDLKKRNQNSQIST

C[C@H](c1cccc(C(=O)NC2COC2)c1)n1cnc2cc(-c3cn[nH]c3N)ccc2c1=O
< 10 nM
Cc1nocc1-c1ccc2c(=O)n(Cc3cccc(C(=O)NC4CCN(C5COC5)CC4)c3)ccc2c1
10 to 100 nM
Nc1cc(-c2ccc3c(=O)n(Cc4cccc(C(=O)N[C@H]5CC[C@@H](O)CC5)c4)ccc3c2)ccn1
10 to 100 nM
CC(C)NC(=O)c1cccc(Cn2ccc3cc(-c4cn[nH]c4)ccc3c2=O)c1
10 to 100 nM
Cn1nccc1-c1ccc2c(=O)n(Cc3cccc(C(=O)NC4CCOCC4)c3)ccc2c1
10 to 100 nM

For each listed entry, give its IC50.
1. Cc1nocc1-c1ccc2c(=O)n([C@H](C)c3cccc(C(=O)NCC4CCNCC4)c3)cnc2c1
2. O=C(N[C@H]1CC[C@@H](O)CC1)c1cc(F)cc(Cn2ccc3cc(N4CCOCC4)ccc3c2=O)c1

[A]
< 10 nM
100 to 500 nM

---

Molecular target: Recombinant ROCK2 (amino acids 5-554) (Homo sapiens)
Construct: ROCK2 (amino acids 5-554); by word order, ROCK2 from SignalChem
Assay: ROCK inhibition assay, LANCE Ultra TR-FRET kinase assay (ROCK2)
Conditions: 4 μM ATP, 50 nM ULight-CREBtide substrate
Procedure: Kinase IC50 was determined through an in vitro assay based on LANCE Ultra TR-FRET (Time-Resolved Fluorescence Resonance Energy Transfer) homogeneous technologies method (Perkin Elmer). […] Compound activities were measured by Envision and IC50s were calculated. […] The reaction was incubated for 1 hour, and the signal was read in Envision in TR-FRET mode (excitation at 320 nm and emission at 615/665 nm). […]
readout: IC50

CN1CC(CNC(=O)c2cccc(Cn3ccc4cc(-c5ccnn5C)ccc4c3=O)c2)C1 [Compound 168]
< 10 nM
Cn1nccc1-c1ccc2c(=O)n(Cc3cccc(C(=O)NCC4CC(O)C4)c3)ccc2c1 (stereo not drawn) [Compound 112]
10 to 100 nM
CNC(=O)c1cccc(Cn2cc(CCO)c3cc(-c4cn[nH]c4C(F)(F)F)ccc3c2=O)c1
< 10 nM
O=C(NCc1ccccc1)c1cccc(Cn2ccc3cc(-c4cn[nH]c4)ccc3c2=O)c1
100 to 500 nM
Cn1nccc1-c1ccc2c(=O)n(Cc3cccc(C(=O)NC4CCN(CC(F)F)CC4)c3)ccc2c1
< 10 nM
CNC(=O)c1cccc(Cn2ccc3cc(-c4cn[nH]c4C(F)F)ccc3c2=O)c1
< 10 nM
O=C(NCC1COC1)c1cccc(Cn2ccc3cc(-c4c[nH]nc4C(F)F)ccc3c2=O)c1
< 10 nM
CNC(=O)c1cc(Cl)cc(Cn2ccc3cc(-c4ccnn4C)ccc3c2=O)c1
100 to 500 nM
O=C(N[C@H]1CC[C@@H](O)CC1)c1cc(F)cc(Cn2ccc3cc(-c4c[nH]nc4Cl)ccc3c2=O)c1
< 10 nM
C[C@H](c1cccc(C(=O)NC2CC2)c1)n1cnc2cc(-c3cn[nH]c3N)ccc2c1=O
< 10 nM

For each listed entry, give its IC50.
1. O=C(NCC1CCNCC1)c1cc(F)cc(Cn2ccc3cc(-c4c[nH]nc4C(F)F)ccc3c2=O)c1
2. CNC(=O)c1cc(F)cc(Cn2ccc3cc(-c4c[nH]nc4C(F)F)ncc3c2=O)c1
3. CC(=O)Nc1cccc(Cn2ccc3cc(-c4c[nH]nc4Cl)ccc3c2=O)c1
4. CNC(=O)c1cccc(Cn2ccc3cc(-c4conc4C)ccc3c2=O)n1
5. COc1cc(F)cc(Cn2cnc3cc(-c4c[nH]nc4C(F)F)ccc3c2=O)c1
6. O=C(NCCO)c1cccc(Cn2cnc3cc(-c4cn[nH]c4C(F)(F)F)ccc3c2=O)c1
7. Cc1n[nH]cc1-c1ccc2c(=O)n(Cc3cccc(C(=O)NCCc4ccccn4)c3)ccc2c1

[A]
1: < 10 nM; 2: < 10 nM; 3: 10 to 100 nM; 4: 100 to 500 nM; 5: < 10 nM; 6: 10 to 100 nM; 7: < 10 nM

For each listed entry, give its IC50.
1. Nc1cc(-c2ccc3c(=O)n(Cc4cccc(C(=O)Nc5nc6c(s5)CNCC6)c4)ccc3c2)ccn1
2. Nc1cc(-c2ccc3c(=O)n(Cc4cccc(C(=O)Nc5ccc6c(c5)CCOC6)c4)ccc3c2)ccn1
3. Cc1nocc1-c1ccc2c(=O)n(Cc3cc(F)cc(C(=O)NCC4CCN(CC(F)(F)F)CC4)c3)ccc2c1
4. NS(=O)(=O)c1ccc(NC(=O)c2cc(F)cc(Cn3ccc4cc(-c5c[nH]nc5C(F)(F)F)ccc4c3=O)c2)cc1

[A]
1. < 10 nM
2. 10 to 100 nM
3. < 10 nM
4. 10 to 100 nM

---

target: Recombinant ROCK1 (amino acids 1-477) (Homo sapiens, UniProt Q13464); construct: Recombinant ROCK1 (amino acids 1-477); by word order, ROCK1 from Carna Biosciences; experiment: ROCK inhibition assay, LANCE Ultra TR-FRET kinase assay (ROCK1); conditions: 1 μM ATP, 50 nM ULight-CREBtide substrate
readout: IC50

Cc1nocc1-c1ccc2c(=O)n(Cc3cccc(C(=O)NCC4CCOCC4)c3)cnc2c1 [Compound 416]
11 to 100 nM
CNC(=O)c1cccc(C(C)n2ccc3cc(-c4conc4C)ccc3c2=O)c1 (stereo not shown) [Compound 309]
11 to 100 nM

For each listed entry, give its IC50.
1. O=C(NCCO)c1cccc(Cn2cnc3cc(-c4cn[nH]c4C(F)(F)F)ccc3c2=O)c1 [Compound 384]
2. Nc1cc(-c2ccc3c(=O)n(Cc4cccc(C(=O)Nc5ccc6c(c5)COCC6)c4)ccc3c2)ccn1 [Compound 197]

[A]
["11 to 100 nM", "11 to 100 nM"]

---

molecular target: Recombinant ROCK2 (amino acids 5-554) (Homo sapiens); construct: ROCK2 (amino acids 5-554); by word order, ROCK2 from SignalChem; test: ROCK inhibition assay, LANCE Ultra TR-FRET kinase assay (ROCK2); conditions: 4 μM ATP, 50 nM ULight-CREBtide substrate
readout: IC50

Solved cases below.
CS(=O)(=O)c1cccc(CNC(=O)c2cccc(Cn3cnc4cc(-c5cn[nH]c5C(F)F)ccc4c3=O)c2)c1 [Compound 398]
0.01 to 0.1 µM
O=C(NCCN1CCOCC1)c1cc(F)cc(Cn2ccc3cc(N4CCOCC4)ccc3c2=O)c1 [Compound 229]
0.01 to 0.1 µM
CNC(=O)c1cc(F)cc(Cn2ccc3cc(N4CCOCC4)ccc3c2=O)c1 [Compound 329]
0.01 to 0.1 µM
CNC(=O)c1cc(F)cc(Cn2ccc3cc(-c4ccnn4C)ncc3c2=O)c1 [Compound 245]
0.01 to 0.1 µM
CNC(=O)c1cccc([C@@H](C)n2cnc3cc(-c4cn[nH]c4OC)ncc3c2=O)c1 [Compound 571]
< 0.01 µM

For each listed entry, give its IC50.
1. CNC(=O)c1cc(F)cc([C@@H](C)n2cnc3cc(-c4cn[nH]c4C(F)(F)F)ccc3c2=O)c1 [Compound 454]
2. NCC(c1cccc(Cl)c1)n1cnc2cc(-c3ccnc(F)c3)ccc2c1=O (stereo not shown) [Compound 492]
3. CN1CCC(NC(=O)c2cccc(Cn3ccc4cc(-c5ccnn5C)ccc4c3=O)c2)CC1 [Compound 106]
4. C[C@H](c1cccc(C(=O)NCC2COC2)c1)n1cnc2cc(-c3cn[nH]c3C(F)(F)F)ccc2c1=O [Compound 452]
5. CNC(=O)c1cccc(Cn2ccc3cc(-c4c[nH]nc4C)ncc3c2=O)c1 [Compound 239]
6. CC(C)NC(=O)c1cc(F)cc(Cn2ccc3cc(-c4c[nH]nc4Cl)ncc3c2=O)c1 [Compound 264]

[A]
["< 0.01 µM", "0.01 to 0.1 µM", "< 0.01 µM", "< 0.01 µM", "< 0.01 µM", "< 0.01 µM"]

For each listed entry, give its IC50.
1. O=C(NC1CCNCC1)c1cccc(Cn2ccc3cc(-c4c[nH]nc4C(F)(F)F)ccc3c2=O)c1 [Compound 46]
2. CNC(=O)c1cccc(Cn2ccc3cc(-c4cn[nH]c4C(F)(F)F)ccc3c2=O)c1 [Compound 280]

[A]
1: < 0.01 µM; 2: < 0.01 µM
